# System: 192522-019-R-J2-PDC complex tumor spheroid viability
# Experimental details: Anticancer human tumor 192522-019-R-J2-PDC patient-derived colon adenocarcinoma cell line growth inhibition [POLQ]
# Cond: curve of first compound; second compound 3.16 µM
Mark each entry yes if its IC50 sits below 300 nM, and no for all others.

-- ask Problem: For the compound C#Cc1c(F)ccc2cc(O)cc(-c3ncc4c(N5CC6CCC(C5)N6)nc(OCC56CCCN5CC(F)C6)nc4c3F)c12 (stereo unspecified) + Cc1cccc(N(C)C(=O)C2C(O)CCN2c2nc(C)cc(C(F)(F)F)c2C#N)c1 , is IC50 under 300 nM?
-- reply no

-- ask Problem: For the compound C=CCn1c(=O)c2cnc(Nc3ccc(N4CCN(C)CC4)cc3)nc2n1-c1cccc(C(C)(C)O)n1 + Cc1cccc(N(C)C(=O)C2C(O)CCN2c2nc(C)cc(C(F)(F)F)c2C#N)c1 , is IC50 under 300 nM?
-- reply no

-- ask Problem: For the compound CC1COCCN1c1cc(C2(S(C)(=N)=O)CC2)nc(-c2ccnc3[nH]ccc23)n1 (stereo unspecified) + COC1C(OC(N)=O)C(O)C(Oc2ccc3c(O)c(NC(=O)c4ccc(O)c(CC=C(C)C)c4)c(=O)oc3c2C)OC1(C)C , is IC50 under 300 nM?
-- reply no

-- ask Problem: For the compound COc1ccc([C@@H](O)c2cc(-c3ncnc4cc(N5CCOCC5)ccc34)c(F)cc2Cl)nn1 + COC1C(OC(N)=O)C(O)C(Oc2ccc3c(O)c(NC(=O)c4ccc(O)c(CC=C(C)C)c4)c(=O)oc3c2C)OC1(C)C , is IC50 under 300 nM?
-- reply no

-- ask Problem: For the compound CCCS(=O)(=O)Nc1ccc(F)c(C(=O)c2c[nH]c3ncc(-c4ccc(Cl)cc4)cc23)c1F + Cc1cccc(N(C)C(=O)C2C(O)CCN2c2nc(C)cc(C(F)(F)F)c2C#N)c1 , is IC50 under 300 nM?
-- reply no

More entries:
-- ask Problem: For the compound C#Cc1c(F)ccc2cc(O)cc(-c3ncc4c(N5CC6CCC(C5)N6)nc(OCC56CCCN5CC(F)C6)nc4c3F)c12 (stereo unspecified) + COC1C(OC(N)=O)C(O)C(Oc2ccc3c(O)c(NC(=O)c4ccc(O)c(CC=C(C)C)c4)c(=O)oc3c2C)OC1(C)C , is IC50 under 300 nM?
-- reply no

-- ask Problem: For the compound CC1COCCN1c1cc(-c2ccnn2C)c2ccnc(-c3ccn[nH]3)c2n1 (stereo unspecified) + Nc1ccc(C#CCN(C(=O)Cc2ncc(C(F)(F)F)cc2C(F)(F)F)c2ccc(F)cc2)nn1 , is IC50 under 300 nM?
-- reply no

-- ask Problem: For the compound C=CC(=O)N1CCN(c2nc(=O)n(-c3c(C)ccnc3C(C)C)c3nc(-c4c(O)cccc4F)c(F)cc23)C(C)C1 (stereo unspecified) + Nc1ccc(C#CCN(C(=O)Cc2ncc(C(F)(F)F)cc2C(F)(F)F)c2ccc(F)cc2)nn1 , is IC50 under 300 nM?
-- reply no

-- ask Problem: For the compound CC1COCCN1c1cc(C2(O)CC3CCC(C2)O3)c2cnn(-c3ccn[nH]3)c2n1 (stereo unspecified) + Cc1cccc(N(C)C(=O)C2C(O)CCN2c2nc(C)cc(C(F)(F)F)c2C#N)c1 , is IC50 under 300 nM?
-- reply no

-- ask Problem: For the compound CC1COCCN1c1cc(C2(O)CC3CCC(C2)O3)c2cnn(-c3ccn[nH]3)c2n1 (stereo unspecified) + Nc1ccc(C#CCN(C(=O)Cc2ncc(C(F)(F)F)cc2C(F)(F)F)c2ccc(F)cc2)nn1 , is IC50 under 300 nM?
-- reply no

-- ask Problem: For the compound COc1cccc(OCCCN)c1-c1cc(Nc2cnc(C#N)cn2)n[nH]1 + Nc1ccc(C#CCN(C(=O)Cc2ncc(C(F)(F)F)cc2C(F)(F)F)c2ccc(F)cc2)nn1 , is IC50 under 300 nM?
-- reply yes

-- ask Problem: For the compound CC(=O)O[C@H]1C(=O)[C@@]2(C)[C@H]([C@H](OC(=O)c3ccccc3)[C@]3(O)C[C@H](OC(=O)[C@H](O)[C@@H](NC(=O)c4ccccc4)c4ccccc4)C(C)=C1C3(C)C)[C@]1(OC(C)=O)CO[C@@H]1C[C@@H]2O + Cc1cccc(N(C)C(=O)C2C(O)CCN2c2nc(C)cc(C(F)(F)F)c2C#N)c1 , is IC50 under 300 nM?
-- reply no

-- ask Problem: For the compound CC1COCCN1c1cc(C2(O)CC3CCC(C2)O3)c2cnn(-c3ccn[nH]3)c2n1 (stereo unspecified) + COC1C(OC(N)=O)C(O)C(Oc2ccc3c(O)c(NC(=O)c4ccc(O)c(CC=C(C)C)c4)c(=O)oc3c2C)OC1(C)C , is IC50 under 300 nM?
-- reply yes

----------
This section presents molecules with their documented IC50 values.
# Test system: 192522-019-R-J2-PDC complex tumor spheroid viability
# Experimental details: Anticancer human tumor 192522-019-R-J2-PDC cell line growth inhibition [POLQ];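 also: spheroids exposed to drugs for seven days before reading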
# Cond: curve of first compound; second compound 1 µM

Examples with answers:
-- ask Under 192522-019-R-J2-PDC complex tumor spheroid viability: report IC50 of CNCc1ccc(-c2[nH]c3cc(F)cc4c3c2CCNC4=O)cc1 + Nc1ccc(C#CCN(C(=O)Cc2ncc(C(F)(F)F)cc2C(F)(F)F)c2ccc(F)cc2)nn1 .
-- reply > 10 µM

-- ask Under 192522-019-R-J2-PDC complex tumor spheroid viability: report IC50 of C=CC(=O)N1CCN(c2nc(=O)n(-c3c(C)ccnc3C(C)C)c3nc(-c4c(O)cccc4F)c(F)cc23)C(C)C1 (configuration not stated) + Cc1cccc(N(C)C(=O)C2C(O)CCN2c2nc(C)cc(C(F)(F)F)c2C#N)c1 .
-- reply > 10 µM

-- ask Under 192522-019-R-J2-PDC complex tumor spheroid viability: report IC50 of CC(=O)O[C@H]1C(=O)[C@@]2(C)[C@H]([C@H](OC(=O)c3ccccc3)[C@]3(O)C[C@H](OC(=O)[C@H](O)[C@@H](NC(=O)c4ccccc4)c4ccccc4)C(C)=C1C3(C)C)[C@]1(OC(C)=O)CO[C@@H]1C[C@@H]2O + Nc1ccc(C#CCN(C(=O)Cc2ncc(C(F)(F)F)cc2C(F)(F)F)c2ccc(F)cc2)nn1 .
-- reply > 3 µM

-- ask Under 192522-019-R-J2-PDC complex tumor spheroid viability: report IC50 of COc1ccc([C@@H](O)c2cc(-c3ncnc4cc(N5CCOCC5)ccc34)c(F)cc2Cl)nn1 + COC1C(OC(N)=O)C(O)C(Oc2ccc3c(O)c(NC(=O)c4ccc(O)c(CC=C(C)C)c4)c(=O)oc3c2C)OC1(C)C .
-- reply > 10 µM

More entries:
-- ask Under 192522-019-R-J2-PDC complex tumor spheroid viability: report IC50 of O=C(Nc1ccc(O)c(NS(=O)(=O)c2ccc(F)cc2)c1)c1ccc(-c2ccccc2)cc1 + COC1C(OC(N)=O)C(O)C(Oc2ccc3c(O)c(NC(=O)c4ccc(O)c(CC=C(C)C)c4)c(=O)oc3c2C)OC1(C)C .
-- reply > 10 µM

-- ask Under 192522-019-R-J2-PDC complex tumor spheroid viability: report IC50 of CCc1c2c(nc3ccc(O)cc13)-c1cc3c(c(=O)n1C2)COC(=O)[C@]3(O)CC + COC1C(OC(N)=O)C(O)C(Oc2ccc3c(O)c(NC(=O)c4ccc(O)c(CC=C(C)C)c4)c(=O)oc3c2C)OC1(C)C .
-- reply 0.0339 µM

-- ask Under 192522-019-R-J2-PDC complex tumor spheroid viability: report IC50 of CC1COCCN1c1cc(-c2ccnn2C)c2ccnc(-c3ccn[nH]3)c2n1 (configuration not stated) + Nc1ccc(C#CCN(C(=O)Cc2ncc(C(F)(F)F)cc2C(F)(F)F)c2ccc(F)cc2)nn1 .
-- reply 0.651 µM

----------
# Tested on: 192522-019-R-J2-PDC complex tumor spheroid viability
# Experimental details: Anticancer human tumor 192522-019-R-J2-PDC cell line growth inhibition [POLQ];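 also: spheroids exposed to drugs for seven days before reading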;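 as to viability, T/C: 100% = DMSO vehicle control viability in luminescence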
# Cond: second compound 0.0316 µM; first compound 0.1 µM; stronger effect = lower value
Measured property: viability, T/C

-- ask Write down viability, T/C measured for item CC1COCCN1c1cc(C2(O)CC3CCC(C2)O3)c2cnn(-c3ccn[nH]3)c2n1 (stereo not drawn) + Cc1cccc(N(C)C(=O)C2C(O)CCN2c2nc(C)cc(C(F)(F)F)c2C#N)c1
-- reply 70.1%

-- ask Write down viability, T/C measured for item COc1cc(C2c3cc4c(cc3C(OC3OC5COC(C)OC5C(O)C3O)C3COC(=O)C23)OCO4)cc(OC)c1O (stereo not drawn) + COC1C(OC(N)=O)C(O)C(Oc2ccc3c(O)c(NC(=O)c4ccc(O)c(CC=C(C)C)c4)c(=O)oc3c2C)OC1(C)C
-- reply 89.3%

More entries:
-- ask Write down viability, T/C measured for item CC1COCCN1c1cc(C2(S(C)(=N)=O)CC2)nc(-c2ccnc3[nH]ccc23)n1 (stereo not drawn) + Cc1cccc(N(C)C(=O)C2C(O)CCN2c2nc(C)cc(C(F)(F)F)c2C#N)c1
-- reply 88%
